Cited source: patent US8252820B2

biological target: human PTP-1B (Homo sapiens, UniProt P18031); construct: recombinant human PTP-1B[1-298] or PTP-1B[1-322]; experiment: PTP-1B inhibitory activity in vitro (IC50); assay type: biochemical; settings: inhibitory activity to human PTP-1B
Sequence (P18031 1-298 limits assumed): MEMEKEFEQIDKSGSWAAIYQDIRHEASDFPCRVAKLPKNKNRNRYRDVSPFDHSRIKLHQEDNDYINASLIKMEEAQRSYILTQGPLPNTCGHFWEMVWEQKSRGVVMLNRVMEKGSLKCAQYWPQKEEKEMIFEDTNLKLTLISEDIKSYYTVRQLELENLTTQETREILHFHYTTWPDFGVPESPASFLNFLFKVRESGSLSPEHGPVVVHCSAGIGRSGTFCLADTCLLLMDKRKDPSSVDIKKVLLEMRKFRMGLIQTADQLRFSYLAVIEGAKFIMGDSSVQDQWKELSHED
pIC50: −log10 of the molar value. Where a name gives a salt, the structure may show the parent alone.
Entries annotated with measured pIC50

MOLECULE: O=C1CN(c2c(O)c(F)cc(F)c2F)S(=O)(=O)N1 [Example No. 26, potassium salt]
pIC50: 6.80
--
MOLECULE: O=C1CN(c2c(O)cc(CC3CCCCC3)cc2F)S(=O)(=O)N1
pIC50: 6.98
